TGT: human 5-HT1A receptor (Homo sapiens, UniProt P08908)
Sequence (P08908 whole entry): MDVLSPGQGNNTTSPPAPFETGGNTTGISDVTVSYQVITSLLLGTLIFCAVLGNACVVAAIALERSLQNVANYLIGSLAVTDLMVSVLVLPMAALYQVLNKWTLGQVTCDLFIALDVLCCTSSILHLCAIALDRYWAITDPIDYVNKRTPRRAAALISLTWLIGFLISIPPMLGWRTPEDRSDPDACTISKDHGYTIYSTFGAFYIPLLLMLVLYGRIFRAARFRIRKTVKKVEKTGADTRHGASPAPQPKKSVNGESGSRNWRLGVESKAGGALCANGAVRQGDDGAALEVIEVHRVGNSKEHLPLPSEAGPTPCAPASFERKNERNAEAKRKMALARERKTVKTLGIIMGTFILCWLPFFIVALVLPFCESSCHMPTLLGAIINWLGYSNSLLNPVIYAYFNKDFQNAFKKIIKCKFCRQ
MEASUREMENT DESCRIPTION: Human 5-HT1A radioligand binding assay ([3H]-8-Hydroxy-DPAT)
Quick reference for pIC50 among some compounds
When answering, recall that pIC50 equals minus log10 of the concentration in mol/L, and write that number alone.

Inquiry: Return reported pIC50; argument: CN1CCC[C@@H]1Cc1c[nH]c2cccc(O)c12 [Compound 10]
Reply text: 6.83

Inquiry: Item under review: CN1CCC[C@@H]1Cc1c[nH]c2cccc(OC(=O)CCCC(=O)Oc3cccc4[nH]cc(C[C@H]5CCCN5C)c34)c12 [Compound I-13] . Reported pIC50?
Reply text: 6.81

Inquiry: # pIC50 lookup, item [2H]C([2H])(c1c[nH]c2cccc(O)c12)[C@H]1CCCN1C([2H])([2H])[2H] [Compound 13]
Reply text: 6.81

Inquiry: Look at this compound and give its reported pIC50. [2H]C([2H])(c1c[nH]c2cccc(OC(=O)CCCC(=O)Oc3cccc4[nH]cc(C([2H])([2H])[C@H]5CCCN5C([2H])([2H])[2H])c34)c12)[C@H]1CCCN1C([2H])([2H])[2H] [Compound I-22]
Reply text: 6.91
